EC50 values, listed per item
# TARGET: T1, human LAG-3 ECD/Fc fusion protein (human)
# T1 construct: also called HuLAG-3 ECD/Fc
# T1 sequence (chain, as listed by the source limits assumed): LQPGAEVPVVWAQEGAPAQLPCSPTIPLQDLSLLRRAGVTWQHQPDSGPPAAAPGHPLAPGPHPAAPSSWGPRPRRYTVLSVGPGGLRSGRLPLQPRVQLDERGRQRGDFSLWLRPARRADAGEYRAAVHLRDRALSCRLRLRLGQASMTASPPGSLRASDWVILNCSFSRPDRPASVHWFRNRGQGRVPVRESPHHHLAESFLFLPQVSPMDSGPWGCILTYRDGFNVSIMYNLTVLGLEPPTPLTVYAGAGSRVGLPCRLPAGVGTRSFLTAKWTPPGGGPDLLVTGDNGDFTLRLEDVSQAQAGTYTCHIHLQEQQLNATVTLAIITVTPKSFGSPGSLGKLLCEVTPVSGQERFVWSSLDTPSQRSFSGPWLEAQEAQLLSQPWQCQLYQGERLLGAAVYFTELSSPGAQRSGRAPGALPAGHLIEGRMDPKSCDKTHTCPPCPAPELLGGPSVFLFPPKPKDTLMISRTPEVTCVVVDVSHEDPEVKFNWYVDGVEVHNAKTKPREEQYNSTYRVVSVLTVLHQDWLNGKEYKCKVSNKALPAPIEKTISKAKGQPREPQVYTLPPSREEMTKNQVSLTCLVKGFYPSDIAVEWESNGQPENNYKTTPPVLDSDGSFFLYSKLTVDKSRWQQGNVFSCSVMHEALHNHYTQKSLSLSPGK
# TEST: ELISA, coated huLAG-3 ECD/Fc
RECORDED_METRIC: EC50

{"columns": ["BINDER", "RECORDED_METRIC", "VALUE_OBSERVED"],
 "data": [
  ["mAb747 (antibody, V domains shown, murine hybridoma anti-LAG-3 mAb; also called 3502-mAb747) VH: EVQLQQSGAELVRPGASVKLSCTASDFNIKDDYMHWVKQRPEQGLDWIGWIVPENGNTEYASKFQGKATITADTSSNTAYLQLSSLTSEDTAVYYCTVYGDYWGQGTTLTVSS VL: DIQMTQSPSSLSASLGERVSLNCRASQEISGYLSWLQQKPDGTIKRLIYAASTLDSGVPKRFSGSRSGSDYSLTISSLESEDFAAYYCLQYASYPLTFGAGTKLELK", "EC50", "0.25 nM"],
  ["mAb746 (antibody, V domains shown, murine hybridoma anti-LAG-3 mAb; also called rnAb746; 3502-mAb746) VH: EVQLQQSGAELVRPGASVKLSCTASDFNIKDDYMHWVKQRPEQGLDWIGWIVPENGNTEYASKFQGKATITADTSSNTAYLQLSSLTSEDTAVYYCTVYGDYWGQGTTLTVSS VL: DIQMTQSPSSLSASLGERVSLNCRASQEISGYLSWLQQKSDGTIKRLIYAASTLDSGVPKRFSGSRSGSDYSLTISSLESEDFADYYCLQYASYPLTFGAGTKLELK", "EC50", "0.31 nM"],
  ["mAb742 (antibody, V domains shown, murine hybridoma anti-LAG-3 mAb) VH: QGQLQQSGAELVRPGASVTLSCKASGYTFNDYEMHWVKQTPVHGLEWIGAIDPETGGTAYNQKFKGKAILTADKSSSTAYMELRSLTSEDSAVYYCIRWGSTVFPYWGQGTLVTVS VL: DGVLTQTPLSLPVNIGDQASISCKSTKSLLNSDGFTYLDWYLQKPGQSPQLLIYLVSNRFSGVPDRFSGSGSGTDFTLKISRVEAEDLGVYYCFQSNYLPWTFGGGTKLEIK", "EC50", "0.22 nM"],
  ["mAb744 (antibody, V domains shown, murine hybridoma anti-LAG-3 mAb; also called rnAb744) VH: QVQLQQSGAELVRPGTSVTLSCKASGYTFTDYEMHWMKQTPVHGLEWIGAIDPATGGTAYNQKFKGKAILTADKSSSTAYMDFRSLTSEDSAVYYCIRWGTTVFPYWGQGTLVTVS VL: DVVLTQTPLSLPVNIGDQASISCKSTKSLLNSDGFTYLDWYLQKPGQSPQLLIYLVSNRFSGVPDRFSGSGSGTDFTLKISRVEAEDLGVYYCFQSNYLPWTFGGGTKLEIK", "EC50", "0.19 nM"]
]}
